assay: Restrictive medium S. cerevisiae growth inhibition, OD615, pilot screen of yeast lifespan reduction project, restrictive growth control (AID 706); settings: OD615, 48 h, at 10 µM, hits give high values;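 further: modified DeaD lifespan yeast strain shifted to restrictive glucose medium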
Calls of active or inactive are those of the source.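 How the source made its calls: active means growth inhibition above a set limit, 3 SD over mean compound inhibition, in both replicates (cut at about 43% in these data); inconclusive means above the limit in only one replicate; inactive means at or below the limit in both replicates.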
measurement.kind: growth inhibition

Examples from the recorded data:
| compound | result |
| --- | --- |
| COc1cc(OC)cc(C(=O)Nn2cc(C(=O)N3CCN(C)CC3)c3ccccc3c2=O)c1 | -7.65% (inactive) |
| Cn1ccnc1SCC(=O)NC1CCCCC1 | -7.09% (inactive) |
| COc1ccccc1-c1cc(N)n(S(=O)(=O)c2ccc(F)c(C)c2)n1 | -5.82% (inactive) |

Supply recorded growth inhibition for Cc1cc(C)nc(SCSc2nc(C)cc(C)n2)n1 here. 5.64% (inactive)

Read off the recorded growth inhibition for O=S(=O)(Nc1cccc(-c2nc3cccnc3s2)c1)c1ccc2c(c1)OCCO2 13.3% (inactive)

// Input: CCCCCSc1nc2c(c(=O)[nH]c(=O)n2C)n1CCc1ccccc1 . Output its growth inhibition only. -4.46% (inactive)

State, in one line, measured growth inhibition of COc1ccc(NC(=O)NCCCN2CCN(c3cc(C)ccc3C)CC2)cc1 -19.5% (inactive)

// Input: CCOC(=O)/C=c1\sc2n(c1=O)CCN=2 . Output its growth inhibition only. -2% (inactive)

Note down growth inhibition recorded for O=C(Nc1ccccc1O)c1ccccc1O 2.25% (inactive)

Please report the measured growth inhibition for COC(=O)c1ccccc1NC(=O)Cn1cc2c(n1)CCC(C)C2 (configuration not stated) -0.81% (inactive)

Attribution: PubChem BioAssay
